# MEASUREMENT PROTOCOL: small molecules boosting NK-mediated OVCAR3 lysis – imaging, primary NK cells, calcein-AM imaging, primary screen (AID 1508625);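 also: compound given to NK cells 16 h before adding targets at 1.5 to 1 ratio; more negative robust z means stronger NK killing of tumor cells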
# CONDITION LABEL: OVCAR3 lysis by primary NK cells, at 5 µM; measured here: robust Z-score, single-point normalisation
Threshold rule: z-score greater than or equal to -1 is yes; below that, no.

Task: Given COc1ccc(C(N)=NOC(=O)CSc2ccccc2)cc1 , state whether its z-score is at least -1.
Output: yes

Task: Given CCOc1ccc(-c2cc(=O)c3ccccc3o2)cc1 , state whether its z-score is at least -1.
Output: no

Task: Given CCC(Sc1nc(C)cc(C)n1)C(=O)Nc1nnc(C)s1 (stereo not given) , state whether its z-score is at least -1.
Output: no

Task: Given CCCNC(=O)C(=O)Nc1ccc(C(C)C)cc1 , state whether its z-score is at least -1.
Output: yes

Task: Given CCN1CCN(C(=O)C2c3ccccc3C(=O)N(C)C2c2cccs2)CC1 (stereo not given) , state whether its z-score is at least -1.
Output: no

Task: Given CCOc1ccc(C2C(=C(O)c3ccc(Cl)cc3)C(=O)C(=O)N2c2nc3ccccc3s2)cc1 (stereo not given) , state whether its z-score is at least -1.
Output: no

Task: Given COc1ccc(C(=O)N2N=C(C(C)C)CC2(O)C(F)(F)F)cc1OC (stereo not given) , state whether its z-score is at least -1.
Output: no

Task: Given COc1ccccc1CNC(=O)CCS(=O)(=O)Cc1ccccc1C , state whether its z-score is at least -1.
Output: no

Task: Given CCCCOC(=O)c1ccc2c(c1)C(=O)N(c1cccc(Cl)c1)C2=O , state whether its z-score is at least -1.
Output: no

Task: Given COc1cc(NC(=O)c2cccs2)ccc1NC(=O)c1ccccc1Cl , state whether its z-score is at least -1.
Output: no

Task: Given Cc1ccccc1OCC(=O)N1N=C2CCCCC2C1(O)C(F)(F)F (stereo not given) , state whether its z-score is at least -1.
Output: no

Task: Given CCc1ccccc1-n1cnc2cc(C(=O)NCc3ccc(C)cc3)ccc21 , state whether its z-score is at least -1.
Output: no

Task: Given C#CCOc1ccc2c(c1)c(C(C)=O)c(C)n2-c1ccc(OCC)cc1 , state whether its z-score is at least -1.
Output: yes

Task: Given CCCCSc1nc2c([nH]c3ccccc32)c(=O)n1-c1ccc(F)cc1 , state whether its z-score is at least -1.
Output: no

Task: Given Cc1cc2nc3sc(=Cc4ccc(Cl)cc4Cl)c(=O)n3c2cc1C , state whether its z-score is at least -1.
Output: yes

Task: Given O=C(COc1ccc(Cl)cc1)N1CCN(C(=O)c2ccccc2F)CC1 , state whether its z-score is at least -1.
Output: yes

Task: Given O=C(CCCn1c(=S)[nH]c2cc3c(cc2c1=O)OCO3)N1CCN(Cc2ccc3c(c2)OCO3)CC1 , state whether its z-score is at least -1.
Output: yes

Task: Given CC(C(=O)NCCCN1CCOCC1)c1ccc([N+](=O)[O-])cc1 (stereo not given) , state whether its z-score is at least -1.
Output: no

Task: Given COCCCNC(=O)c1cc(OC)c(OC)c(OC)c1 , state whether its z-score is at least -1.
Output: no

Task: Given Cc1cc(Br)cc2c(N=NC(=O)c3ccccc3)c(O)[nH]c12 , state whether its z-score is at least -1.
Output: yes

Task: Given O=C1OC(c2ccccc2Cl)=NC1=Cc1ccccc1F , state whether its z-score is at least -1.
Output: no

Task: Given O=C1CC(c2ccc(Cl)cc2)CC2=C1C(c1cccc(F)c1)Nc1ccccc1N2 (stereo not given) , state whether its z-score is at least -1.
Output: no

Task: Given O=C1c2cccc([N+](=O)[O-])c2C(=O)N1C1C(=O)N(c2cccc(C(F)(F)F)c2)C1c1ccc(F)cc1 (stereo not given) , state whether its z-score is at least -1.
Output: yes

Task: Given Cc1ccc(C)c(Cn2cccc2C#N)c1 , state whether its z-score is at least -1.
Output: no

Task: Given Nc1nc(OCC(F)(F)F)cc(OCC(F)(F)F)n1 , state whether its z-score is at least -1.
Output: no

Task: Given Cc1cc(=O)oc2ccc(Oc3ccc(C#N)cc3[N+](=O)[O-])cc12 , state whether its z-score is at least -1.
Output: yes

Task: Given CCOc1ccccc1C=Nc1ccc(Cl)cc1Cl , state whether its z-score is at least -1.
Output: no

Task: Given Cc1cc(Nc2ncnc3sc4c(c23)CCCC4)ccc1Br , state whether its z-score is at least -1.
Output: no

Task: Given C=CCn1c(COc2cccc3cccnc23)nnc1SCC(=O)OC , state whether its z-score is at least -1.
Output: no

Task: Given CC(=O)Oc1ccc(C(=O)Nc2nc3ccc4ccccc4c3s2)cc1 , state whether its z-score is at least -1.
Output: yes

Task: Given O=[N+]([O-])c1cccc(CN2CCN3CCCC3C2C2CCCCC2)c1 (stereo not given) , state whether its z-score is at least -1.
Output: yes

Task: Given O=C(c1ccccc1Br)N1N=C(c2ccccc2)CC1(O)C(F)(F)F (stereo not given) , state whether its z-score is at least -1.
Output: no

Task: Given COc1ccc(C)cc1NC(=O)c1cc(S(=O)(=O)NC2CCCCC2C)ccc1F (stereo not given) , state whether its z-score is at least -1.
Output: yes

Task: Given COc1cc(OC)c(C=C2C(=O)NC(=S)N(c3ccc(Cl)cc3)C2=O)cc1Br , state whether its z-score is at least -1.
Output: no

Task: Given Cc1cccc(N2C(=O)c3ccc(NC(=O)c4ccc(Br)cc4)cc3C2=O)c1 , state whether its z-score is at least -1.
Output: no

Task: Given CCOC(=O)C1C(c2ccccc2)NC(=S)NC1(O)C(F)(F)F (stereo not given) , state whether its z-score is at least -1.
Output: yes

Task: Given COc1cccc(C(=O)N2CCN(C(=O)c3ccccc3OC)CC2)c1 , state whether its z-score is at least -1.
Output: no

Task: Given Cc1nc2ccc3nc(NC(=O)c4cc([N+](=O)[O-])ccc4Cl)sc3c2s1 , state whether its z-score is at least -1.
Output: yes

Task: Given Cc1ccc(Cl)cc1N1C(=O)CN(Cc2cccs2)C1=S , state whether its z-score is at least -1.
Output: yes

Task: Given CN(Cc1ccccc1)Cc1c(O)ccc2c(=O)c(Oc3ccccc3Br)c(C(F)(F)F)oc12 , state whether its z-score is at least -1.
Output: yes

Task: Given COC(=O)c1cc(NC(=O)C2(S(=O)(=O)c3ccc(C)cc3)CC2)cc(C(=O)OC)c1 , state whether its z-score is at least -1.
Output: no

Task: Given O=C(Nc1ccccc1Cl)c1cccc([N+](=O)[O-])c1 , state whether its z-score is at least -1.
Output: yes

Task: Given Clc1ccc(CSc2ncnc3c2oc2ccccc23)cc1 , state whether its z-score is at least -1.
Output: no

Task: Given O=C(Nc1cccc(Br)c1)c1ccc2snnc2c1 , state whether its z-score is at least -1.
Output: no

Task: Given c1ccc(OCCCc2nc(-c3ccccn3)no2)cc1 , state whether its z-score is at least -1.
Output: no
